The values you see were collected from PubChem BioAssay AID1918932.

- Test system: 171881-019-R-J1-PDC complex spheroid viability
- test_summary: Anticancer human tumor 171881-019-R-J1-PDC patient-derived invasive breast carcinoma cell line growth inhibition
- condition_label: second compound 10 µM; first compound 0.00316 µM; stronger effect = lower value
Measured viability, T/C values are reported for all entries that follow.
State just the number; it will be interpreted in %.

Previously resolved entries follow.
O=C(C=Cn1cnc(-c2cc(C(F)(F)F)cc(C(F)(F)F)c2)n1)NNc1cnccn1 + NC1CC1c1ccc(-c2cccc(O)c2)cc1    25
Cn1ncnc1C1c2n[nH]c(=O)c3cc(F)cc(c23)NC1c1ccc(F)cc1 (centres undefined) + NC1CC1c1ccc(-c2cccc(O)c2)cc1    90.8
CC[C@@]1(O)C(=O)OCc2c1cc1n(c2=O)Cc2cc3c(CN(C)C)c(O)ccc3nc2-1 + NC1CCC(NC2CC2c2ccccc2)CC1    133

Could you now consider this next compound?
*Q* Please report the recorded viability, T/C for CC(C)CC(NC(=O)CNC(=O)c1cc(Cl)ccc1Cl)B1OC(=O)CC(CC(=O)O)(C(=O)O)O1 (centres undefined) + NC1CCC(NC2CC2c2ccccc2)CC1 .
*A* 56.2

---

- Test system: 171881-019-R-J1-PDC complex spheroid viability
- test_summary: Anticancer human tumor 171881-019-R-J1-PDC cell line growth inhibition;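 note: spheroids exposed to agents for 7 days after 3 days growth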
- condition_label: second compound 0.1 µM; first compound 3 µM; stronger effect = lower value
measurement_kind: viability, T/C (%)
State just the number; it will be interpreted in %.

COc1cc(C2c3cc4c(cc3C(OC3OC5COC(C)OC5C(O)C3O)C3COC(=O)C23)OCO4)cc(OC)c1O (stereo not given) + NC1CCC(NC2CC2c2ccccc2)CC1    18.5
O=C(C=Cc1cccc(S(=O)(=O)Nc2ccccc2)c1)NO + NC1CC1c1ccc(-c2cccc(O)c2)cc1    0.11
Nc1ccccc1NC(=O)c1ccc(CNC(=O)OCc2cccnc2)cc1 + NC1CCC(NC2CC2c2ccccc2)CC1    0.32
CCN(c1cc(-c2ccc(CN3CCOCC3)cc2)cc(C(=O)NCc2c(C)cc(C)[nH]c2=O)c1C)C1CCOCC1 + NC1CCC(NC2CC2c2ccccc2)CC1    47.3
NS(=O)(=O)OCC1CC(n2ccc3c(NC4CCc5ccccc54)ncnc32)CC1O (stereo not given) + NC1CC1c1ccc(-c2cccc(O)c2)cc1    23.3

*Q* 171881-019-R-J1-PDC complex spheroid viability / viability, T/C / COc1cc(C2c3cc4c(cc3C(OC3OC5COC(C)OC5C(O)C3O)C3COC(=O)C23)OCO4)cc(OC)c1O (stereo not given) + NC1CC1c1ccc(-c2cccc(O)c2)cc1 : value?
*A* 29.2

*Q* 171881-019-R-J1-PDC complex spheroid viability / viability, T/C / O=C(C=Cc1cccc(S(=O)(=O)Nc2ccccc2)c1)NO + NC1CCC(NC2CC2c2ccccc2)CC1 : value?
*A* 0.16

*Q* 171881-019-R-J1-PDC complex spheroid viability / viability, T/C / Nc1ccccc1NC(=O)c1ccc(CNC(=O)OCc2cccnc2)cc1 + NC1CC1c1ccc(-c2cccc(O)c2)cc1 : value?
*A* 0.69

*Q* 171881-019-R-J1-PDC complex spheroid viability / viability, T/C / CCN(c1cc(-c2ccc(CN3CCOCC3)cc2)cc(C(=O)NCc2c(C)cc(C)[nH]c2=O)c1C)C1CCOCC1 + NC1CC1c1ccc(-c2cccc(O)c2)cc1 : value?
*A* 42.7

*Q* 171881-019-R-J1-PDC complex spheroid viability / viability, T/C / NS(=O)(=O)OCC1CC(n2ccc3c(NC4CCc5ccccc54)ncnc32)CC1O (stereo not given) + NC1CCC(NC2CC2c2ccccc2)CC1 : value?
*A* 23.8

---

- System: 171881-019-R-J1-PDC complex spheroid viability
- test_summary: Anticancer human tumor 171881-019-R-J1-PDC cell line growth inhibition; active = viability on the fitted dose curve at most 10% of control; inactive = the rest;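 note: spheroids exposed to agents for 7 days after 3 days growth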
- condition_label: second compound 10 µM; first compound 0.00949 µM
Respond using exactly one of the listed classes: true (active), false (inactive)

Consider the worked cases shown below.
Nc1ccccc1NC(=O)c1ccc(CNC(=O)OCc2cccnc2)cc1 + NC1CCC(NC2CC2c2ccccc2)CC1    false
CCc1c2c(nc3ccc(O)cc13)-c1cc3c(c(=O)n1C2)COC(=O)[C@]3(O)CC + NC1CCC(NC2CC2c2ccccc2)CC1    false
CCc1c2c(nc3ccc(O)cc13)-c1cc3c(c(=O)n1C2)COC(=O)[C@]3(O)CC + NC1CC1c1ccc(-c2cccc(O)c2)cc1    true

Would you kindly look at the next entry?
*Q* Tell me the assay call for Nc1ccn(C2OC(CO)C(O)C2(F)F)c(=O)n1 (centres undefined) + NC1CCC(NC2CC2c2ccccc2)CC1 please.
*A* false

---

- Tested on: 171881-019-R-J1-PDC complex spheroid viability
- test_summary: Anticancer human tumor 171881-019-R-J1-PDC cell line growth inhibition;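 note: spheroids exposed to agents for 7 days after 3 days growth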
- condition_label: second compound 3.16 µM; first compound 1 µM; stronger effect = lower value
Measured viability, T/C values are reported for all entries that follow.

Previously resolved entries follow.
COc1ccc([C@@H](O)c2cc(-c3ncnc4cc(N5CCOCC5)ccc34)c(F)cc2Cl)nn1 + NC1CC1c1ccc(-c2cccc(O)c2)cc1    40.8%
COc1cc(Nc2ncc3c(n2)-c2ccc(Cl)cc2C(c2c(F)cccc2OC)=NC3)ccc1C(=O)O + NC1CC1c1ccc(-c2cccc(O)c2)cc1    25.4%
CC(C)c1c(-c2ccccc2)nc2c(C#N)c[nH]n2c1=O + NC1CCC(NC2CC2c2ccccc2)CC1    80.3%
CC(C)c1c(-c2ccccc2)nc2c(C#N)c[nH]n2c1=O + NC1CC1c1ccc(-c2cccc(O)c2)cc1    87.4%
CC1(C)CCC(CN2CCN(c3ccc(C(=O)NS(=O)(=O)c4ccc(NCC5CCOCC5)c([N+](=O)[O-])c4)c(Oc4cnc5[nH]ccc5c4)c3)CC2)=C(c2ccc(Cl)cc2)C1 + NC1CCC(NC2CC2c2ccccc2)CC1    61.4%

Could you now consider this next compound?
*Q* Please report the recorded viability, T/C for O=C(C=Cn1cnc(-c2cc(C(F)(F)F)cc(C(F)(F)F)c2)n1)NNc1cnccn1 + NC1CCC(NC2CC2c2ccccc2)CC1 .
*A* 2.78%

---

- System: 171881-019-R-J1-PDC complex spheroid viability
- test_summary: Anticancer human tumor 171881-019-R-J1-PDC cell line growth inhibition; active = viability on the fitted dose curve at most 10% of control; inactive = the rest;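 note: spheroids exposed to agents for 7 days after 3 days growth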
- condition_label: second compound 10 µM; first compound 0.0316 µM
Respond using exactly one of the listed classes: yes (1) (active), no (0) (inactive)

Consider the worked cases shown below.
CC[C@@]1(O)C(=O)OCc2c1cc1n(c2=O)Cc2cc3c(CN(C)C)c(O)ccc3nc2-1 + NC1CC1c1ccc(-c2cccc(O)c2)cc1    no (0)
COc1ccc([C@@H](O)c2cc(-c3ncnc4cc(N5CCOCC5)ccc34)c(F)cc2Cl)nn1 + NC1CCC(NC2CC2c2ccccc2)CC1    no (0)
CC1COCCN1c1cc(C2(S(C)(=N)=O)CC2)nc(-c2ccnc3[nH]ccc23)n1 (configuration not stated) + NC1CC1c1ccc(-c2cccc(O)c2)cc1    no (0)
Nc1ncn(C2CC(O)C(CO)O2)c(=O)n1 (configuration not stated) + NC1CC1c1ccc(-c2cccc(O)c2)cc1    no (0)
O=C(C=Cn1cnc(-c2cc(C(F)(F)F)cc(C(F)(F)F)c2)n1)NNc1cnccn1 + NC1CCC(NC2CC2c2ccccc2)CC1    yes (1)
CC(C)CC(NC(=O)CNC(=O)c1cc(Cl)ccc1Cl)B1OC(=O)CC(CC(=O)O)(C(=O)O)O1 (configuration not stated) + NC1CCC(NC2CC2c2ccccc2)CC1    yes (1)

Would you kindly look at the next entry?
*Q* Tell me the assay call for CC1COCCN1c1cc(-c2ccnn2C)c2ccnc(-c3ccn[nH]3)c2n1 (configuration not stated) + NC1CC1c1ccc(-c2cccc(O)c2)cc1 please.
*A* no (0)

---

- System: 171881-019-R-J1-PDC complex spheroid viability
- test_summary: Anticancer human tumor 171881-019-R-J1-PDC cell line growth inhibition;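 note: spheroids exposed to agents for 7 days after 3 days growth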
- condition_label: second compound 0.1 µM; first compound 0.00949 µM; stronger effect = lower value
Measured viability, T/C values are reported for all entries that follow.

Previously resolved entries follow.
Nc1ccccc1NC(=O)c1ccc(CNC(=O)OCc2cccnc2)cc1 + NC1CCC(NC2CC2c2ccccc2)CC1    86.6%
CCN(c1cc(-c2ccc(CN3CCOCC3)cc2)cc(C(=O)NCc2c(C)cc(C)[nH]c2=O)c1C)C1CCOCC1 + NC1CC1c1ccc(-c2cccc(O)c2)cc1    102%
CCc1c2c(nc3ccc(O)cc13)-c1cc3c(c(=O)n1C2)COC(=O)[C@]3(O)CC + NC1CCC(NC2CC2c2ccccc2)CC1    32.2%
CCc1c2c(nc3ccc(O)cc13)-c1cc3c(c(=O)n1C2)COC(=O)[C@]3(O)CC + NC1CC1c1ccc(-c2cccc(O)c2)cc1    25.1%

Could you now consider this next compound?
*Q* 171881-019-R-J1-PDC complex spheroid viability / viability, T/C / O=C(C=Cc1cccc(S(=O)(=O)Nc2ccccc2)c1)NO + NC1CC1c1ccc(-c2cccc(O)c2)cc1 : value?
*A* 99.8%
